Biological target: p38 (Homo sapiens)
Construct: 6xHis (N)
Sequence (Q16539 whole entry): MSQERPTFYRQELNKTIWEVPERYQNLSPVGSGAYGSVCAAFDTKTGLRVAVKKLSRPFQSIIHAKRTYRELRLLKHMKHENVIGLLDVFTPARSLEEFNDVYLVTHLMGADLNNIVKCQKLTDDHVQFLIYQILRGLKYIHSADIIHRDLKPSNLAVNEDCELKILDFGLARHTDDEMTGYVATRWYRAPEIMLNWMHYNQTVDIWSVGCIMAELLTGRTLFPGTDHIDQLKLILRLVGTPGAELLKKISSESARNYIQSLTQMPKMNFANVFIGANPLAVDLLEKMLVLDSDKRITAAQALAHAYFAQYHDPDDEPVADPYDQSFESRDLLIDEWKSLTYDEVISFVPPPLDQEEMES
Assay: in vitro inhibition of p38 (CPSB): purified recombinant 6xHis-p38, myelin basic protein substrate, 33P-ATP
Observed property: pIC50
Recall that pIC50 is obtained by taking minus log10 of the concentration measured in molar.

Consider the reported pIC50 for these molecules:
In [3]: df
Out[3]:
                                   molecule  recorded_number
0  O=C(NCCCSc1nc(-c2ccncc2)c(-c2ccc(F)cc2)[nH]1)c1cccs1             5.90
1  O=C(NCCCSc1nc(-c2ccncc2)c(-c2ccc(F)cc2)[nH]1)c1cccc2ccccc12             5.90
2  OCCCCc1nc(-c2ccncc2)c(-c2ccc(F)cc2)[nH]1 [Compound 16b]             5.80
3        Fc1ccc(-c2[nH]c(S)nc2-c2ccncc2)cc1             5.72
4    CCSc1nc(-c2ccncc2)c(-c2ccc(F)cc2)[nH]1             6.40

Entry under review: O=C(NCCCSc1nc(-c2ccncc2)c(-c2ccc(F)cc2)[nH]1)c1ccccc1 . Reported pIC50?
5.66

Entry under review: N#CCSc1nc(-c2ccncc2)c(-c2ccc(F)cc2)[nH]1 . Reported pIC50?
6.40

Entry under review: CC(=O)OCCCCc1nc(-c2ccncc2)c(-c2ccc(F)cc2)[nH]1 [Compound 16a] . Reported pIC50?
5.85

Entry under review: CCOC(CCSc1nc(-c2ccncc2)c(-c2ccc(F)cc2)[nH]1)OCC . Reported pIC50?
5.70

Measured values drawn from patent US6040320A for this set.
